Hello, the source for this data is PubChem BioAssay AID1985, in case you need it.

System: S. Typhi PhoP-promoter GFP reporter, fluorescence, 4 h
assay.details: PhoP regulon inhibitor project modified counter assay, GFP fluorescence readout, dose response (AID 1985)

{"columns": ["compound", "IC50"],
 "data": [
  ["C#CCOCCOCCOCCNc1nc(N2CCN(C(=O)CCCCCCCCCCNC(=O)[C@H](CCCCN)n3cc(C[C@@H](C)CC)nn3)CC2)nc(N2CCN(C(=O)CCCCCCCCCCNC(=O)[C@H](CCCN=C(N)N)n3cc(C[C@@H](C)CC)nn3)CC2)n1", "68.2 µM"],
  ["Clc1ccc2[nH]c3c(c2c1)CCc1cn[nH]c1-3", "74.8 µM"],
  ["CCCCCCCCCCCCCCCC[N+](C)(C)C", "19.3 µM"],
  ["O=C(NC(=S)NNC(=O)c1cccs1)c1ccc(Br)o1", "25.4 µM"],
  ["O[C@@H](c1cc(C(F)(F)F)nc2c(C(F)(F)F)cccc12)[C@H]1CCCCN1", "90.6 µM"],
  ["NC(N)=N/N=C/c1ccc(OCc2ccc(Cl)cc2Cl)cc1", "16.9 µM"],
  ["Oc1c(Br)cc(Br)cc1C=NCc1ccc(F)cc1", "54.4 µM"],
  ["CSc1nc2cc(Oc3cccc(Cl)c3Cl)c(Cl)cc2[nH]1", "57.8 µM"],
  ["CCN1CCN(Cc2ccc(NC(=O)c3cc(NC(=O)c4cc(-c5ccc(OC)cc5)n[nH]4)cc(OC)c3)cc2C(F)(F)F)CC1", "102 µM"],
  ["Cc1cccn2c(=O)c(C=O)c(Cl)nc12", "140 µM"],
  ["Cc1cccc(OCC(O)Cn2c(=N)n(CCN3CCCCC3)c3ccccc32)c1 (stereo not drawn)", "50.2 µM"],
  ["NC(=O)SCC(=O)Nc1cccc(Cl)c1", "29.9 µM"],
  ["CNC[C@@H](Cc1ccccc1)NC[C@@H](CC1CCCCC1)NCCCc1ccccc1", "41.8 µM"],
  ["CCn1cc(C(=O)O)c(=O)c2cc(F)c(N3CCN(C(=S)Nc4ccccc4OC)CC3)cc21", "6.7 µM"],
  ["CCCCn1c(NS(=O)(=O)c2ccccc2)c(C(=O)OCC)c2nc3ccccc3nc21", "110 µM"],
  ["O=[N+]([O-])c1cc(Cl)cc(/C=N/NC(=S)Nc2ccc(S(=O)(=O)N3CCOCC3)cc2)c1O", "46.3 µM"],
  ["CCn1nnc(NC(=O)c2ccc([N+](=O)[O-])o2)n1", "28.4 µM"],
  ["O=C(/C=C/c1ccco1)NC(=S)NNC(=O)c1ccco1", "111 µM"],
  ["Clc1ccc(C(c2ccc(Cl)cc2)n2cc[n+](CC(OCc3ccc(Cl)cc3Cl)c3ccc(Cl)cc3Cl)c2)cc1 (stereo not drawn)", "15 µM"],
  ["CCN1/C(=C/C(C)=C/c2sc3ccccc3[n+]2CC)Sc2ccccc21", "12.6 µM"],
  ["Cc1ccc(Nc2cc(C)nn2-c2nc(C)cc(=O)[nH]2)cc1", "10.2 µM"],
  ["COc1c(N2CCN(C(=S)NC3CC4CCC3C4)C(C)C2)c(F)cc2c(=O)c(C(=O)O)cn(C3CC3)c12 (stereo not drawn)", "1.11 µM"],
  ["CN1CCN(C2=Cc3ccccc3Sc3cc(F)c(F)cc32)CC1", "74.6 µM"],
  ["O=C(N/N=C/c1cc(Cl)ccc1O)c1cccnc1", "28.2 µM"],
  ["O=C(Nc1ccc(Cl)cc1)c1cccs1", "105 µM"],
  ["CC(=O)NC(=S)NNC(=O)c1ccc(Br)cc1", "33.8 µM"],
  ["O=C(CC1NCCc2ccccc21)Nc1ccc(Oc2ccccc2)cc1 (stereo not drawn)", "79.9 µM"],
  ["O=[N+]([O-])c1cc(/C=N/Nc2nc3ccccc3[nH]2)c(O)cc1O", "24.8 µM"],
  ["Cc1ccc2nc(N(CCCN(C)C)C(=O)c3ccc4c(c3)CCCC4)sc2c1", "78.5 µM"],
  ["Cc1c(N=Cc2cc(Br)cc(Br)c2O)cccc1C(=O)O", "77.5 µM"],
  ["CNC[C@H](Cc1ccccc1)NC[C@@H](Cc1cccc2ccccc12)NCCc1ccc(C)cc1", "19.6 µM"],
  ["Cc1cc(C)c(OCCCCNCc2ccccc2)c(Cl)c1", "113 µM"],
  ["O=C(N/N=C/c1c[nH]c2ccccc12)c1ccc(Cl)cc1", "123 µM"],
  ["CCN(CC)CCn1c(=N)n(CC(O)COc2cccc(C)c2)c2ccccc21 (stereo not drawn)", "85.2 µM"],
  ["Cc1nc(N)nc(N)c1CCCc1ccc(Cl)c(Cl)c1", "43.1 µM"],
  ["Nc1nc(=S)c2[nH]cnc2[nH]1", "6.3 µM"],
  ["CC[N+](C)(CC)CCC[n+]1c(-c2ccccc2)c2cc(N)ccc2c2ccc(N)cc21", "53.4 µM"],
  ["Cc1ccc(C(=O)Sc2cccccc2=O)cc1", "1.97 µM"]
]}
